Test system: Escherichia coli TOP10
measurement-protocol: shrunken log2 fold change of peptide-encoding DNA abundance (4.5 h post-induction vs induction); higher = less antimicrobial activity (less host growth inhibition)
recorded-conditions: time post-induction: 4.5 h; library: site-saturation at positions 5, 18, 19, 20
shrunken log2 fold change listing for selected sequences.
Answer with a bare number; do not write a unit.

INSERT INTO assay_data (seq_string, system, reported_measurement) VALUES
  ('RRIRIRPPRLPRPRPRPCAVPRP', 'Escherichia coli TOP10', -0.431),
  ('RRIRRRPPRLPRPRPRPKYQPRP', 'Escherichia coli TOP10', -0.017),
  ('RRIRFRPPRLPRPRPRPPRYPRP', 'Escherichia coli TOP10', 0.246);

Bench note: what shrunken log2 fold change did RRIRRRPPRLPRPRPRPGKTPRP show?
0.104

###

Tested on: Escherichia coli TOP10
measurement-protocol: shrunken log2 fold change of peptide-encoding DNA abundance (4.5 h post-induction vs induction); higher = less antimicrobial activity (less host growth inhibition)
recorded-conditions: time post-induction: 4.5 h; library: site-saturation at positions 5, 18, 19, 20
Decision: shrunken log2 fold change compared against 0.07; not below it gives t, below it gives f.

As a guide, the following entries are already answered.
INSERT INTO measurements (seq_string, cat) VALUES
  ('RRIRQRPPRLPRPRPRPGLDPRP', 't'),
  ('RRIRIRPPRLPRPRPRPLVEPRP', 'f'),
  ('RRIRARPPRLPRPRPRPYDKPRP', 'f'),
  ('RRIRSRPPRLPRPRPRPVCPPRP', 'f'),
  ('RRIRDRPPRLPRPRPRPNEHPRP', 'f');

Determine whether measured shrunken log2 fold change meets or exceeds 0.07 for RRIRWRPPRLPRPRPRPNKDPRP
f

Also need RRIRHRPPRLPRPRPRPSHMPRP , thanks.
f

Also need RRIRCRPPRLPRPRPRPSEGPRP , thanks.
t

Also need RRIRDRPPRLPRPRPRPEPDPRP , thanks.
t

Also need RRIRGRPPRLPRPRPRPFTEPRP , thanks.
t

Also need RRIRGRPPRLPRPRPRPLPAPRP , thanks.
t

Also need RRIRNRPPRLPRPRPRPMIKPRP , thanks.
f

Also need RRIRGRPPRLPRPRPRPYQRPRP , thanks.
t

Also need RRIRTRPPRLPRPRPRPGFSPRP , thanks.
f

###

System: Escherichia coli TOP10;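 further: peptides expressed intracellularly from a pBAD plasmid library in pooled LB shake-flask culture, induced with 0.3% L-arabinose, DNA abundance read by NGS, three biological replicates, DESeq2 with apeglm shrinkage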
measurement-protocol: shrunken log2 fold change of peptide-encoding DNA abundance (4.5 h post-induction vs induction); higher = less antimicrobial activity (less host growth inhibition)
recorded-conditions: time post-induction: 4.5 h; library: site-saturation at positions 5, 18, 19, 20
property-name: shrunken log2 fold change
Answer with a bare number; do not write a unit.

Answered examples (5):
INSERT INTO assay_data (seq_string, property_name, reported_measurement) VALUES
  ('RRIRSRPPRLPRPRPRPNNKPRP', 'shrunken log2 fold change', -0.559),
  ('RRIRLRPPRLPRPRPRPTLCPRP', 'shrunken log2 fold change', 0.163),
  ('RRIRQRPPRLPRPRPRPFELPRP', 'shrunken log2 fold change', -0.113),
  ('RRIRCRPPRLPRPRPRPMQYPRP', 'shrunken log2 fold change', -0.000361),
  ('RRIRNRPPRLPRPRPRPPSRPRP', 'shrunken log2 fold change', 0.228);

Bench note: what shrunken log2 fold change did RRIRPRPPRLPRPRPRPIEWPRP show?
0.015

Also need RRIRWRPPRLPRPRPRPKYFPRP , thanks.
-0.302

Also need RRIRERPPRLPRPRPRPSPIPRP , thanks.
-0.122

Also need RRIRSRPPRLPRPRPRPWYAPRP , thanks.
-0.253

Also need RRIRKRPPRLPRPRPRPLMAPRP , thanks.
0.635

Also need RRIRIRPPRLPRPRPRPGKQPRP , thanks.
-0.0943

Also need RRIRMRPPRLPRPRPRPTYCPRP , thanks.
-0.271

Also need RRIRKRPPRLPRPRPRPGHKPRP , thanks.
0.193

Also need RRIRKRPPRLPRPRPRPTYDPRP , thanks.
-0.0829

Also need RRIRLRPPRLPRPRPRPLPAPRP , thanks.
0.585
